- test-summary: Clinical pharmacological trial: pharmacokinetics after single-dose edoxaban 15 mg in individuals with renal functional impairment
- condition-notes: human, in vivo, 15 mg, t1/2 Geometric least squares mean, single-dose 15 mg; mild renal impairment (50 ≦ CLCR ≦ 80 mL/min)
- Method: Edoxaban was subjected to a clinical trial targeting individuals with renal functional impairment, in which edoxaban was studied for its pharmacokinetics in the individuals with renal functional impairment (Non-patent literature 4). In this clinical trial, 15 mg of edoxaban was administered at a single dose to each patient in five groups differing in the severity of renal functional impairment.
assay-endpoint: half-life

Given item CN1CCc2nc(C(=O)N[C@@H]3C[C@@H](C(=O)N(C)C)CC[C@@H]3NC(=O)C(=O)Nc3ccc(Cl)cn3)sc2C1 [edoxaban] , the value recorded as its half-life is 8.15 h
